Target: anti-CD28 Fab
Sequence (VH, as listed by the source, chain 1 of 2): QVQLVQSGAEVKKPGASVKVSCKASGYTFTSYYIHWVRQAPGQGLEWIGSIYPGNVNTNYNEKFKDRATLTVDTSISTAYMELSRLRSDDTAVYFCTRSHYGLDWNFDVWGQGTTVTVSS
Sequence (VL, as listed by the source, chain 2 of 2): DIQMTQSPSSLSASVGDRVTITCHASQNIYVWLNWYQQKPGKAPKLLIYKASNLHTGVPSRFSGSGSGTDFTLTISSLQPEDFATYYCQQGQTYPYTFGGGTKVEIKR
Experiment: BLI (Octet): biotinylated peptide on streptavidin sensor, anti-CD28 Fab titrated in solution, 1:1 model
Where no end group is shown, it is not given here.
measurement.type: pKd
Entry type: numeric. Quantity: pKd, the -log10 of concentration in molar units.

Recorded results for 4 binders are shown here.
{"columns": ["binder", "pKd"],
 "data": [
  ["YCEGHAPEYIAKCL (cysteine pairing not given here; also: biotinylated, site not given here) [Peptide-121]", 6.08],
  ["YCEGHLPEYRNKCL (cysteine pairing not given here; also: biotinylated, site not given here) [Peptide-132]", 6.96],
  ["YCEGHLPEYIEKCL (cysteine pairing not given here; also: biotinylated, site not given here) [Peptide-120]", 6.03],
  ["YCAGHAWQYINKCL (not fully specified; cysteine pairing not given here; also: biotinylated, site not given here) [Peptide-87]", 5.69]
]}

Now let's try a different one.
Q: Would you mind telling me what pKd value was observed for YCEGHLPEYLAKCL (not fully specified; cysteine pairing not given here; also: biotinylated, site not given here) [Peptide-127] ?
A: 7.35
